The following molecules are listed with their measured pEC50 values.
- Measured target: GCase N370S (N370/ΔGG human mutant Gaucher fibroblasts) (Homo sapiens, UniProt P04062, N409S)
- Construct: The human mutant Gaucher fibroblasts were purchased from Coriell Institute
- Sequence (P04062 40-536 N409S): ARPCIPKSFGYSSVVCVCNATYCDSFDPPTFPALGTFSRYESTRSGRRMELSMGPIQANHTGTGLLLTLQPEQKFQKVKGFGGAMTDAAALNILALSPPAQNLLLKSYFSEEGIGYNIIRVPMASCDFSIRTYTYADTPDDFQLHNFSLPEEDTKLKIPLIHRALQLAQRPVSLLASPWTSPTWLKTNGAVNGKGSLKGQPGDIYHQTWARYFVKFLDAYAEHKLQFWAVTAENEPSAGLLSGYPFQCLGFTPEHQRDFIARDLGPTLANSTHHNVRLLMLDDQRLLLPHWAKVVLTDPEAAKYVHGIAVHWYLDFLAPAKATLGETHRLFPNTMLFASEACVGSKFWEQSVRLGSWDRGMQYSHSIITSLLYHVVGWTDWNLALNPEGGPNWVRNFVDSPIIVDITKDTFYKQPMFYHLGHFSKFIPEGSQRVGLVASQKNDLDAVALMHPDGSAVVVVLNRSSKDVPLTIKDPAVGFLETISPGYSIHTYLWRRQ
- Method: EC50 cell-based assay for GCase, mutant N370/ΔGG fibroblasts (GCase N370S)
- Assay context: 5 days compound treatment (0-20 μM)
pEC50: −log10 of the molar value.

Before answering, review these 5 worked examples.
INSERT INTO results (molecule, result) VALUES
  ('COc1ccc(NC(=O)C(C)(C)Oc2ccccc2C(=O)NCC2CCCO2)cc1 (stereo not drawn) [Compound 32]', '4.00 to 5.00'),
  ('O=C(Nc1ccc(O)cc1)c1nc2cc(F)cc(C(=O)NCC3CCO3)c2o1 (stereo not drawn) [Compound 26]', '> 5.00'),
  ('O=C(Nc1ccc(Br)cc1)c1nc2cccc(C(=O)NCC3CCCO3)c2o1 (stereo not drawn) [Compound 4]', '> 5.00'),
  ('O=C(COc1ccccc1C(=O)NCC1CCO1)Nc1ccc(Br)cc1 (stereo not drawn) [Compound 2]', '> 5.00'),
  ('CN1CCC(NC(=O)C(C)(C)Oc2ccccc2C(=O)NCC2CCCO2)CC1 (stereo not drawn) [Compound 37]', '> 5.00');

# ---- query molecule ----
Which value of pEC50 has been reported for COc1ccc(NC(=O)c2nc3cccc(C(=O)NCC4CCCO4)c3o2)cc1 (stereo not drawn) [Compound 8] in the records?
> 5.00

---

- Measured target: GCase in healthy human fibroblasts (Homo sapiens, UniProt P04062)
- Construct: Healthy human fibroblasts (GCase cell); endogenous in cells
- Sequence (P04062 40-536): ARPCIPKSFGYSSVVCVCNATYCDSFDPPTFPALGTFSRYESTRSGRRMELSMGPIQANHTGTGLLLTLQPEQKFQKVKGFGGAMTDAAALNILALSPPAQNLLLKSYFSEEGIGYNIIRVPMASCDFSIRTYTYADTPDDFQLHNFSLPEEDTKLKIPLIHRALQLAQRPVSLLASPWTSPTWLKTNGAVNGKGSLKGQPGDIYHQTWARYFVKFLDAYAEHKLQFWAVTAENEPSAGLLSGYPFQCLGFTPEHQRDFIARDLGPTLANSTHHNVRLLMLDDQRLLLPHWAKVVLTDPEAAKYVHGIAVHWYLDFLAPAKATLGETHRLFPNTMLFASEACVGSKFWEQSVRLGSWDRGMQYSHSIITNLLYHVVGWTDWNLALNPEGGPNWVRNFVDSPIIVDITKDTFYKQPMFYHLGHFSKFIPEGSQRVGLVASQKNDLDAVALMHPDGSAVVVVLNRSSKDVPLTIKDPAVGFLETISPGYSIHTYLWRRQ
- Method: EC50 cell-based assay for GCase, healthy human fibroblasts (GCase cell)
- Assay context: 5 days compound treatment (0-20 μM)
pEC50: −log10 of the molar value.
The following compounds are listed with their measured pEC50 values.

Before answering, review these 2 worked examples.
INSERT INTO measurements (compound, measured_target, observable, result) VALUES
  ('CC1(C)CCC(NC(=O)C(C)(C)Oc2ccc(F)cc2C(=O)NCC2CCO2)CO1 (stereo not drawn)', 'GCase in healthy human fibroblasts (Homo sapiens, UniProt P04062)', 'pEC50', '> 5.00'),
  ('O=C(COc1ccccc1C(=O)NCC1CCO1)Nc1ccc(Br)cc1 (stereo not drawn)', 'GCase in healthy human fibroblasts (Homo sapiens, UniProt P04062)', 'pEC50', '4.00 to 5.00');

# ---- query compound ----
Which value of pEC50 has been reported for COc1ccc(NC(=O)N2Cc3cccc(C(=O)NCC4CCO4)c3C2)cc1 (stereo not drawn) in the records?
> 5.00

---

The following compounds are listed with their measured pEC50 values.
- Measured target: GCase L444P (L444P/L444P human mutant Gaucher fibroblasts) (Homo sapiens, UniProt P04062, L483P)
- Construct: The human mutant Gaucher fibroblasts were purchased from Coriell Institute; host or cells: human Gaucher fibroblasts L444P/L444P
- Sequence (P04062 40-536 L483P): as the sequence (P04062 40-536 N409S) above, with S370N, L444P counted along it
- Method: EC50 cell-based assay for GCase, mutant L444P/L444P fibroblasts (GCase L444P)
- Assay context: 5 days compound treatment (0-20 μM)
pEC50: −log10 of the molar value.

Before answering, review these 2 worked examples.
INSERT INTO assay_data (compound, observable, result) VALUES
  ('COc1ccc(NC(=O)c2nc3cccc(C(=O)NCC4CCCO4)c3o2)cc1 (stereo not drawn)', 'pEC50', '> 5.00'),
  ('CN1CCC(NC(=O)C(C)(C)Oc2ccccc2C(=O)NCC2CCCO2)CC1 (stereo not drawn)', 'pEC50', '> 5.00');

# ---- query compound ----
Which value of pEC50 has been reported for O=C(Nc1ccc(O)cc1)c1nc2cc(F)cc(C(=O)NCC3CCO3)c2o1 (stereo not drawn) in the records?
> 5.00
